These data points were gathered from patent US20030153622A1.

experiment: Characteristics of Component B (isoelectric point; pH and osmotic pressure in 0.1 mol/L aqueous solution); type: physicochemical; conditions: Component B in 0.1 mol/L aqueous solution
Classification field: enter Satisfied for pH values not below 6, Not satisfied for values below it.

Reference set (2 entries):
[
  {
    "compound": "N=C(N)NCCC[C@H](N)C(=O)O [arginine]",
    "label_value": "Satisfied"
  },
  {
    "compound": "CC(C)[C@H](N)C(=O)O [L-valine]",
    "label_value": "Satisfied"
  }
]

In the following, a different compound is considered.
Say whether NCCS(=O)(=O)O [taurine] shows pH of 6 or more. Not satisfied

----------
Listed below: Isoelectric point values for each entry.
Assay: Characteristics of Component B (isoelectric point; pH and osmotic pressure in 0.1 mol/L aqueous solution)
Type: physicochemical
Details: Component B
Excerpt: As the Component A, polyhexamethylene biguamide (PHMB) was used. As the Component B (tonicity adjusting agent), different kinds of the amino-acid-based components having different isoelectric points as indicated in the following TABLE 2 were used. […] As the chelating agent, disodium salt of ethylenediamine tetraacetic acid (EDTA·2Na) was used.
Give the value as a plain number.

Sample records with Isoelectric point:
[
  {
    "compound": "NCCCC(=O)O",
    "test_result": 7.30
  },
  {
    "compound": "O=C(O)[C@@H]1C[C@@H](O)CN1",
    "test_result": 5.83
  }
]

Recorded Isoelectric point for CC(N)C(=O)O (racemic) , please? 6.00

----------
assay: Characteristics of Component B (isoelectric point; pH and osmotic pressure in 0.1 mol/L aqueous solution); format: physicochemical; settings: Component B in 0.1 mol/L aqueous solution
measure_name: Osmotic pressure (mOsm/kg)
Value expressed in mOsm/kg; do not type the unit.

[
  {
    "compound": "O=C(O)[C@@H]1CCCN1 [L-proline]",
    "Osmotic pressure [mOsm/kg]": 104
  }
]

What value of Osmotic pressure has been reported for the following compound? N[C@@H](CO)C(=O)O [L-serine] 105

What measured Osmotic pressure goes with NCCCCCC(=O)O [ε-aminocaproic acid] ? 106

Please give the measured Osmotic pressure for this compound: N[C@@H](Cc1ccccc1)C(=O)O [L-phenylalanine] 105

Consider the compound Cl.N=C(N)NCCC[C@H](N)C(=O)O [arginine hydrochloride] and give its measured Osmotic pressure. 181

Requested read-out: Osmotic pressure. Entry: NCCS(=O)(=O)O [taurine] 106

# Osmotic pressure lookup, item N[C@@H](CS)C(=O)O [L-cysteine] 102

Give the measured Osmotic pressure of CC(N)C(=O)O (racemic) [DL-alanine] . 104

Look up Osmotic pressure for this compound: Cl.NCCCC[C@H](N)C(=O)O [lysine hydrochloride] 105

Param item = N=C(N)NCCC[C@H](N)C(=O)O [arginine] ; retrieve measured Osmotic pressure. 100

Can you look up the measured Osmotic pressure of Cl.N[C@@H](Cc1c[nH]cn1)C(=O)O [L-histidine hydrochloride] for me? 105

Entry C[C@@H](O)[C@H](N)C(=O)O [L-threonine] : reported Osmotic pressure = ? 102

----------
Parameter Isoelectric point: see the listing below.
experiment: Characteristics of Component B (isoelectric point; pH and osmotic pressure in 0.1 mol/L aqueous solution); format: physicochemical; conditions: Component B
Format: numeric value only, no unit, no commentary.

Example results:
[
  {
    "compound": "O=C(O)[C@@H]1CCCN1",
    "Isoelectric point": 6.30
  },
  {
    "compound": "C[C@@H](O)[C@H](N)C(=O)O",
    "Isoelectric point": 6.16
  }
]

Which Isoelectric point is reported for this compound? N=C(N)NCCC[C@H](N)C(=O)O 10.76

----------
Recorded pH, one value per entry.
test: Characteristics of Component B (isoelectric point; pH and osmotic pressure in 0.1 mol/L aqueous solution); format: physicochemical; conditions: Component B in 0.1 mol/L aqueous solution
The response must contain the number and no unit.

# count of solved cases: 3
[
  {
    "compound": "O=C(O)[C@@H]1C[C@@H](O)CN1",
    "measure_name": "pH",
    "test_result": 5.87
  },
  {
    "compound": "Cl.N[C@@H](Cc1c[nH]cn1)C(=O)O [L-histidine hydrochloride]",
    "measure_name": "pH",
    "test_result": 5.80
  },
  {
    "compound": "N[C@@H](CO)C(=O)O",
    "measure_name": "pH",
    "test_result": 6.12
  }
]

pH lookup needed for NCCCCCC(=O)O , thanks. 7.54

Data request, read-out pH, for CC(N)C(=O)O (racemic) 6.05

Recorded pH for O=C(O)[C@@H]1CCCN1 , please? 5.90

Need pH of NCCCC(=O)O , thanks. 5.96

What value of measured pH is listed for Cl.N=C(N)NCCC[C@H](N)C(=O)O [arginine hydrochloride] ? 5.62

What value of pH has been reported for the following compound? N[C@@H](CS)C(=O)O 5.86

----------
assay: Characteristics of Component B (isoelectric point; pH and osmotic pressure in 0.1 mol/L aqueous solution); format: physicochemical; conditions: Component B in 0.1 mol/L aqueous solution
The following compounds are listed with their measured pH values.

Entry Cl.NCCCC[C@H](N)C(=O)O [lysine hydrochloride] has what pH? 5.91

Name the reported pH value associated with the compound N[C@@H](Cc1ccccc1)C(=O)O 6.14

What value of pH has been recorded for this entry: C[C@@H](O)[C@H](N)C(=O)O 5.88

----------
test: Characteristics of Component B (isoelectric point; pH and osmotic pressure in 0.1 mol/L aqueous solution); assay type: physicochemical; conditions: Component B in 0.1 mol/L aqueous solution
// reported Osmotic pressure for each item listed
# output: bare number, implied unit mOsm/kg

[
  {
    "molecular_string": "CC(C)[C@H](N)C(=O)O",
    "measure_name": "Osmotic pressure",
    "test_result": 103
  }
]

Consider the molecule NCCCC(=O)O and give its measured Osmotic pressure. 107

For the molecule shown here, O=C(O)[C@@H]1C[C@@H](O)CN1 , give the reported Osmotic pressure. 105

----------
experiment: Characteristics of Component B (isoelectric point; pH and osmotic pressure in 0.1 mol/L aqueous solution); assay type: physicochemical; conditions: Component B
Classify by measured Isoelectric point: 1.0 if it is equal to or exceeds 6, 0.0 if it is smaller.

Example results:
[
  {
    "compound": "NCCCCCC(=O)O [ε-aminocaproic acid]",
    "label_value": 1.0
  },
  {
    "compound": "Cl.NCCCC[C@H](N)C(=O)O [lysine hydrochloride]",
    "label_value": 1.0
  },
  {
    "compound": "N[C@@H](CS)C(=O)O [L-cysteine]",
    "label_value": 0.0
  }
]

Does the compound NCCS(=O)(=O)O [taurine] have recorded Isoelectric point that is 6 or more? 0.0

Could you please find out whether N[C@@H](Cc1ccccc1)C(=O)O [L-phenylalanine] has Isoelectric point that meets 6 or exceeds it? 0.0

Assess whether reported Isoelectric point for Cl.N=C(N)NCCC[C@H](N)C(=O)O [arginine hydrochloride] sits at 6 or higher. 1.0

Exam item: decide whether the reported Isoelectric point for Cl.N[C@@H](Cc1c[nH]cn1)C(=O)O [L-histidine hydrochloride] is at least 6. 1.0

Dear colleague, could you confirm whether N[C@@H](CO)C(=O)O [L-serine] has Isoelectric point at or above 6? 0.0
